pKi: −log10 of the molar value.
Endpoint: pKi. System: Cathepsin D (Homo sapiens, UniProt P07339). Items follow.
Sequence (P07339 65-412, species assumed): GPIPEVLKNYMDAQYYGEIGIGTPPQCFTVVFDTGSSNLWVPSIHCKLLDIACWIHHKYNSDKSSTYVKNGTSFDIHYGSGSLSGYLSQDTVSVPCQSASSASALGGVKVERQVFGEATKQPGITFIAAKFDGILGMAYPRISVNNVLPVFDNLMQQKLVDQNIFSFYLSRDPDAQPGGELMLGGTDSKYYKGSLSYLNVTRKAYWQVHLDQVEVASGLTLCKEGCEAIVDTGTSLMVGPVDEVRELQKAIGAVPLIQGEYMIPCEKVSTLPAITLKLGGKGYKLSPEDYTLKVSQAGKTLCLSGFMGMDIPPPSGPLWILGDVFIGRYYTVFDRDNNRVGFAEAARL

{"compound": "Cc1csc(COC(=O)N[C@@H](CNC(=O)OC(C)(C)C)C(=O)N[C@@H](CC(C)C)[C@@H](O)C[C@@H](C)C(=O)N[C@H](C(=O)NCC(C)C)C(C)C)n1", "value-type": "pKi", "measured": "6.22 to 7.00"}
{"compound": "COC(=O)NC[C@H](NC(=O)OCc1nc(C)cs1)C(=O)N[C@@H](CC(C)C)[C@@H](O)C[C@@H](C)C(=O)N[C@H](C(=O)NCC(C)C)C(C)C", "value-type": "pKi", "measured": "> 7.00"}
{"compound": "Cc1csc(C[C@H](C)C(=O)N[C@@H](CNC(=O)OC(C)(C)C)C(=O)N[C@@H](CC(C)C)[C@@H](O)C[C@@H](C)C(=O)N[C@H](C(=O)NCC(C)C)C(C)C)n1", "value-type": "pKi", "measured": "> 7.00"}
{"compound": "Cc1csc(C[C@H](C)C(=O)N[C@@H](CNS(C)(=O)=O)C(=O)N[C@@H](CC(C)C)[C@@H](O)C[C@@H](C)C(=O)N[C@H](C(=O)NCC(C)C)C(C)C)n1", "value-type": "pKi", "measured": "> 7.00"}

QUERY: Look up and report measured pKi (Cathepsin D (Homo sapiens, UniProt P07339)) for the following compound: COC(Cn1nc(C)cc1C)C(=O)N[C@@H](CNC(=O)OC(C)(C)C)C(=O)N[C@@H](CC(C)C)[C@@H](O)C[C@@H](C)C(=O)N[C@H](C(=O)NCC(C)C)C(C)C (some centres unmarked)
RESULT: > 7.00

QUERY: Provide pKi, tested on Cathepsin D (Homo sapiens, UniProt P07339), for CCC(Cn1nc(C)cc1C)C(=O)N[C@@H](CNC(=O)OCCF)C(=O)N[C@@H](CC(C)C)[C@@H](O)C[C@@H](C)C(=O)N[C@H](C(=O)NCC(C)C)C(C)C (some centres unmarked) .
RESULT: > 7.00

QUERY: Report measured pKi on Cathepsin D (Homo sapiens, UniProt P07339); entry: COC(=O)NC[C@H](NC(=O)[C@@H](C)Cc1nc(C)cs1)C(=O)N[C@@H](CC(C)C)[C@@H](O)C[C@@H](C)C(=O)N[C@H](C(=O)NCC(C)C)C(C)C
RESULT: > 7.00

QUERY: Provide the reported pKi (system: Cathepsin D (Homo sapiens, UniProt P07339)) for Cc1csc(C[C@H](C)C(=O)N[C@@H](CNC(=O)OC(C)(C)C)C(=O)N[C@@H](CC(C)C)[C@@H](O)C[C@@H](C)C(=O)N[C@H](CS(=O)(=O)CC(C)C)C(C)C)n1
RESULT: < 6.22

QUERY: State, for Cathepsin D (Homo sapiens, UniProt P07339), measured pKi of the compound listed here: CC[C@@H](Cc1nc(C)cs1)C(=O)N[C@@H](CNC(=O)OC(C)(C)C)C(=O)N[C@@H](CC(C)C)[C@@H](O)C[C@@H](C)C(=O)N[C@H](C(=O)NCC(C)C)C(C)C
RESULT: > 7.00

QUERY: Provide pKi, tested on Cathepsin D (Homo sapiens, UniProt P07339), for Cc1nc(COC(=O)N[C@@H](CC(N)=O)C(=O)N[C@@H](CC(C)C)[C@@H](O)C[C@@H](C)C(=O)N[C@H](C(=O)NCC(C)C)C(C)C)c(C)o1 .
RESULT: > 7.00

QUERY: System Cathepsin D (Homo sapiens, UniProt P07339). Read-out pKi. Item Cc1nc(COC(=O)N[C@@H](CC(=O)O)C(=O)N[C@@H](CC(C)C)[C@@H](O)C[C@@H](C)C(=O)N[C@H](C(=O)NCC(C)C)C(C)C)c(C)o1 . Report value.
RESULT: > 7.00

FYI, the data here is from patent US7659289B2.
